Property: remaining at 5 min; scope: individual molecules
molecular target: pepsin (Sus scrofa); experiment: in vitro; details: simulated gastric fluid, pH 1.2
Sequence (P00791 60-385): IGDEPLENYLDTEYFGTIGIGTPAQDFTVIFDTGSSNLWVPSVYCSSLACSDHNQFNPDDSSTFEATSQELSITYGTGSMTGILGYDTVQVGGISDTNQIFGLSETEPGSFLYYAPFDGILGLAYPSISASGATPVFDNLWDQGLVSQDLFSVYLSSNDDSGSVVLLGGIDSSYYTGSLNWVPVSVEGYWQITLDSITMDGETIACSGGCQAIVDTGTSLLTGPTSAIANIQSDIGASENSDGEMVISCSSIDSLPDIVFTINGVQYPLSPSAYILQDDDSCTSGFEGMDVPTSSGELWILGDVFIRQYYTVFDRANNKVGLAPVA
Starred links: 1 amine or outer side, 2 acyl side, 3 side chain; linkers in the order of their positions; H or OH if unused. Non-standard residues stand in square brackets, D forms with d. Residues, ends and D or L forms follow the SMILES beside them. X1 = CC(C)C[C@H](NC(=S)[C@H](Cc1ccc(O)cc1)N[*:1])C(=O)[*:2]; X6 = O=C([C@H](Cc1ccc(O)cc1)NC(=S)[C@H]1CCCN1[*:1])[*:2]; X2 = CC(C)C[C@H](NC(=S)[C@@H](CC(C)C)N[*:1])C(=O)[*:2]; X3 = CC(C)C[C@H](N[*:1])C(=S)N[C@H](CC(C)C)C(=O)[*:2]; X5 = CC(C)C[C@H](NC(=S)[C@H](CC(C)C)N[*:1])C(=O)[*:2]; X4 = CC(C)C[C@H](N[*:1])C(=S)N1CCC[C@@H]1C(=O)[*:2]
All answers are understood in %, so give the number only.

[[record]]
molecule = "CC(C)C[C@@H]1NC(=O)[C@H](Cc2ccc(O)cc2)NC(=O)[C@H]2CCCN2C(=O)[C@H](CC(C)C)NC(=O)[C@H](CC(C)C)NC(=O)[C@@H](CC(C)C)NC1=O [compound 10, cyclo(-D-Leu^1-Leu-Leu-D-Pro-Tyr-Leu^6-)] (cyclo(LL[dP]YL[dL]))"
tgt = "pepsin (Sus scrofa)"
experimental_value = 67

[[record]]
molecule = "CC(C)C[C@@H]1NC(=O)[C@H](Cc2ccc(O)cc2)NC(=S)[C@H]2CCCN2C(=O)[C@H](CC(C)C)NC(=O)[C@H](CC(C)C)NC(=O)[C@@H](CC(C)C)NC1=O [10d] (cyclo(LL[X6]L[dL]))"
tgt = "pepsin (Sus scrofa)"
experimental_value = 75

[[record]]
molecule = "CC(C)C[C@@H]1NC(=O)[C@@H](CC(C)C)NC(=S)[C@H](CC(C)C)NC(=O)[C@H](Cc2ccc(O)cc2)NC(=O)[C@H]2CCCN2C(=O)[C@H](CC(C)C)NC1=O [10f] (cyclo(LL[dP]Y[X3]))"
tgt = "pepsin (Sus scrofa)"
experimental_value = 78


Consider the molecule CC(C)C[C@@H]1NC(=O)[C@@H](CC(C)C)NC(=O)[C@H](CC(C)C)NC(=S)[C@H](Cc2ccc(O)cc2)NC(=O)[C@H]2CCCN2C(=O)[C@H](CC(C)C)NC1=O [10e] (cyclo(LL[dP][X1][dL])) and give its measured remaining at 5 min.
82

Param item: CC(C)C[C@@H]1NC(=O)[C@H](Cc2ccc(O)cc2)NC(=O)[C@H]2CCCN2C(=O)[C@H](CC(C)C)NC(=S)[C@H](CC(C)C)NC(=O)[C@@H](CC(C)C)NC1=O [10b] (cyclo(L[dL][X5][dP]Y))
72

Param item: CC(C)C[C@@H]1NC(=O)[C@H](Cc2ccc(O)cc2)NC(=O)[C@H]2CCCN2C(=O)[C@H](CC(C)C)NC(=O)[C@H](CC(C)C)NC(=S)[C@@H](CC(C)C)NC1=O [10a] (cyclo(L[dP]YL[X2]))
83

Param item: CC(C)C[C@@H]1NC(=O)[C@H](Cc2ccc(O)cc2)NC(=O)[C@H]2CCCN2C(=S)[C@H](CC(C)C)NC(=O)[C@H](CC(C)C)NC(=O)[C@@H](CC(C)C)NC1=O [10c] (cyclo(L[dL]L[X4]Y))
76
